Target: Serine protease 1 (Homo sapiens, UniProt P07477)
Sequence (P07477 whole entry): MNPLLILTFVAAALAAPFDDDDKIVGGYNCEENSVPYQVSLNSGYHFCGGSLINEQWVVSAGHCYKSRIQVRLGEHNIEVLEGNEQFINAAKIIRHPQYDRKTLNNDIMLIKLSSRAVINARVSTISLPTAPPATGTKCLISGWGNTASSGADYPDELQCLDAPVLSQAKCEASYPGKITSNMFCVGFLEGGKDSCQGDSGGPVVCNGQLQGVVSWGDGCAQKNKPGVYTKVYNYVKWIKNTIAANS
Assay: The binding affinity was measured on trypsin obtained from Human purified enzymes
measurement_kind: Ki (nM)
# value in nM; strip the unit string

[Q] Report Ki for CC(=O)N[C@H](Cc1ccccc1)C(=O)N1CCC[C@@H]1C(=O)NC(CCCN=C(N)N)B(O)O (single isomer, unassigned; (-)) please.
[A] 55

---

Target: Coagulation factor X (Homo sapiens, UniProt P00742)
Sequence (P00742 41-179 limits assumed): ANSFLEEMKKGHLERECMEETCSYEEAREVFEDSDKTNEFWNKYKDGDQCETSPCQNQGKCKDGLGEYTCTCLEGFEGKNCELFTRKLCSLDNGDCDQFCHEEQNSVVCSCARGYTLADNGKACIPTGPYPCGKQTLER
Sequence (P00742 235-488 limits assumed): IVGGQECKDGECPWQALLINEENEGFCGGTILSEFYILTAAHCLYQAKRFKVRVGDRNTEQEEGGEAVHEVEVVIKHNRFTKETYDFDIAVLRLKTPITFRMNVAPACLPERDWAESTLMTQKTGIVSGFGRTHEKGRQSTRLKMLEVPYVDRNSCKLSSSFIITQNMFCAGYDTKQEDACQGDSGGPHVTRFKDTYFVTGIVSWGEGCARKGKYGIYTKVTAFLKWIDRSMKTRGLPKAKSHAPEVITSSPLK
Experiment: Binding affinity to purified human coagulation factor Xa (FXa)
Answer each item with its documented Ki.
# value in nM; strip the unit string

[Q] Report Ki for COC(=O)CC1(C(=O)Nc2ccc(-c3ccccc3OC)cc2)CC(c2cccc(C(=N)N)c2)=NO1 (stereo not drawn) please.
[A] 62

[Q] What about this compound? COC(=O)CC1(C(=O)Nc2ncc(-c3ccccc3S(N)(=O)=O)cn2)CC(c2cccc(C(=N)N)c2)=NO1.O=C(O)C(F)(F)F (stereo in doubt; 34(+))
[A] 12

[Q] What about this compound? COC(=O)CC1(C(=O)Nc2ncc(-c3ccccc3S(N)(=O)=O)cn2)CC(c2cccc(C(=N)N)c2)=NO1.O=C(O)C(F)(F)F (single isomer, unassigned; (-))
[A] 2.3

[Q] What about this compound? CC(=O)N[C@H](Cc1ccccc1)C(=O)N1CCC[C@@H]1C(=O)NC(CCCN=C(N)N)B(O)O (single isomer, unassigned; (-))
[A] 40

[Q] What about this compound? COC(=O)CC1(C(=O)Nc2ccc(-c3ccccc3S(N)(=O)=O)cc2C)CC(c2cccc(C(=N)N)c2)=NO1 (stereo not drawn)
[A] 8.8

[Q] What about this compound? COC(=O)CC1(C(=O)Nc2ccc(-c3ccccc3)cc2)CC(c2cccc(C(=N)N)c2)=NO1 (stereo not drawn)
[A] 220

[Q] What about this compound? COC(=O)CC1(C(=O)Nc2ccc(-c3ccccc3SC)cc2)CC(c2cccc(C(=N)N)c2)=NO1 (stereo not drawn)
[A] 66

[Q] What about this compound? COC(=O)CC1(C(=O)Nc2ccc(-c3ccccc3S(N)(=O)=O)cn2)CC(c2cccc(C(=N)N)c2)=NO1.O=C(O)C(F)(F)F (single isomer, unassigned; (+))
[A] 7

[Q] What about this compound? COC(=O)CC1(C(=O)Nc2ccc(-c3ccccc3C(=O)OC)cc2)CC(c2cccc(C(=N)N)c2)=NO1 (stereo not drawn)
[A] 53

[Q] What about this compound? COC(=O)CC1(C(=O)Nc2ccc(-c3ccccc3S(C)(=O)=O)cc2)CC(c2cccc(C(=N)N)c2)=NO1 (stereo not drawn)
[A] 4.2

[Q] What about this compound? COC(=O)CC1(C(=O)Nc2ccc(-c3ccccc3S(N)(=O)=O)cn2)CC(c2cccc(C(=N)N)c2)=NO1.O=C(O)C(F)(F)F (single isomer, unassigned; (-))
[A] 0.83

[Q] What about this compound? COC(=O)CC1(C(=O)Nc2ccc(-c3cccc(C(F)(F)F)c3)cc2)CC(c2cccc(C(=N)N)c2)=NO1 (stereo not drawn)
[A] 240

[Q] What about this compound? COC(=O)CC1(C(=O)Nc2ccc(-c3ccccc3S(N)(=O)=O)cn2)CC(c2cccc(C(=N)N)c2)=NO1.O=C(O)C(F)(F)F (racemic)
[A] 0.96

The reported measurements were obtained from ChEMBL document CHEMBL1132311.
